System: F22844 lysine oxidase
Experiment: Substrate specificity of F22844 lysine oxidase
Assay type: biochemical, Trichoderma sp.
Conditions: lysine = 100, L-isomers
Recorded Relative activity (%) values for a group of molecules are listed next.

>  <molecule>
N[C@@H](Cc1c[nH]cn1)C(=O)O [Histidine]

>  <target.system>
F22844 lysine oxidase

>  <Relative activity (%)>
5.0

$$$$
>  <molecule>
NCCC[C@H](N)C(=O)O [Ornithine]

>  <target.system>
F22844 lysine oxidase

>  <Relative activity (%)>
10.8

$$$$
>  <molecule>
NCCCC[C@H](N)C(=O)O [Lysine]

>  <target.system>
F22844 lysine oxidase

>  <Relative activity (%)>
100.0

$$$$
>  <molecule>
N=C(N)NCCC[C@H](N)C(=O)O [Arginine]

>  <target.system>
F22844 lysine oxidase

>  <Relative activity (%)>
2.6

$$$$
>  <molecule>
N[C@@H](Cc1ccccc1)C(=O)O [Phenylalanine]

>  <target.system>
F22844 lysine oxidase

>  <Relative activity (%)>
6.6

$$$$
